- Tested on: Klebsiella aerogenes DSM 30053
- method.notes: fold change of Putrescine concentration vs plate DMSO controls (fold change (ratio)); higher = more amine produced, active = hit call of the paper (significant change in both replicates, either direction)
- run.conditions: incubation time: 27 h, anaerobic, 37 °C
Where a name gives a salt, the structure may show the parent alone.
List of fold change of Putrescine concentration values.
measured.parameter: fold change of Putrescine concentration

compound | measurement
CN1CCC(=C2c3ccccc3Sc3ccccc32)CC1 [Pimethixene maleate] (20 µM) | 0.991
CCN(CC)C(=O)N1CCN(C)CC1 [Diethylcarbamazine citrate] (20 µM) | 0.985
C=C1CC[C@H](O)C/C1=C/C=C1\CCC[C@]2(C)[C@@H]([C@H](C)CCCC(C)C)CC[C@@H]12 [Cholecalciferol] (20 µM) | 1.01
CNCC[C@@H](Oc1cccc2ccccc12)c1cccs1 [(R)-Duloxetine hydrochloride] (20 µM) | 0.994
Nc1nc2[nH]cnc2c(=S)[nH]1 [Tioguanine] (20 µM) | 0.987
C[C@@H]1C[C@H]2[C@@H]3C[C@H](F)C4=CC(=O)C=C[C@]4(C)[C@@]3(F)[C@@H](O)C[C@]2(C)[C@@]1(O)C(=O)CO [Flumethasone] (20 µM) | 0.989
C=C(CC)C(=O)c1ccc(OCC(=O)O)c(Cl)c1Cl [Ethacrynic acid] (20 µM) | 1.03
Cc1ccc(C)c(OCCCC(C)(C)C(=O)O)c1 [Gemfibrozil] (20 µM) | 1.02
O=C1c2cccc(O)c2C(=O)c2c(O)cccc21 [Danthron] (20 µM) | 0.975
COc1ccc(NS(=O)(=O)c2ccc(N)cc2)nn1 [Sulfamethoxypyridazine] (20 µM) | 1.03
C[N+](C)(CCOc1ccccc1)Cc1ccccc1.O=C([O-])c1cc2ccccc2cc1O [Bephenium hydroxynaphthoate] (20 µM) | 0.99
Cc1c(NC(=O)c2cccnc2)c(=O)n(-c2ccccc2)n1C [Nifenazone] (20 µM) | 0.978
O=c1[nH]cnc2c1ncn2[C@@H]1O[C@H](CO)[C@@H](O)[C@H]1O [Inosine] (20 µM) | 1.02
CCc1oc2ccccc2c1C(=O)c1cc(I)c(O)c(I)c1 [Benziodarone] (20 µM) | 1.01
COc1cc2c(cc1OC)C(=O)C(CC1CCN(Cc3ccccc3)CC1)C2 (stereo unspecified) [Donepezil hydrochloride] (20 µM) | 2.04
Cc1cccn2c(=O)c(-c3nnn[nH]3)cnc12 [Pemirolast potassium] (20 µM) | 1.01

The measured values listed here are drawn from the supplement of paper PMC12494721.
